The measurements presented in this section are drawn from patent US4794118A.

Test: Acute toxicity in mice
Details: mouse, in vivo, oral administration
READOUT LABEL: LD50

Problem: Fill blank: measured LD50 of the molecule O=[N+]([O-])OCC1COc2ccc([N+](=O)[O-])c(O)c2O1 (stereo not shown) is ____.
Solution: 500 to 1000 mg/kg
